Molecular target: Epidermal growth factor receptor (Homo sapiens, UniProt P00533); note: in the data inactive means no Kd found up to 30 µM
Sequence (P00533 whole entry): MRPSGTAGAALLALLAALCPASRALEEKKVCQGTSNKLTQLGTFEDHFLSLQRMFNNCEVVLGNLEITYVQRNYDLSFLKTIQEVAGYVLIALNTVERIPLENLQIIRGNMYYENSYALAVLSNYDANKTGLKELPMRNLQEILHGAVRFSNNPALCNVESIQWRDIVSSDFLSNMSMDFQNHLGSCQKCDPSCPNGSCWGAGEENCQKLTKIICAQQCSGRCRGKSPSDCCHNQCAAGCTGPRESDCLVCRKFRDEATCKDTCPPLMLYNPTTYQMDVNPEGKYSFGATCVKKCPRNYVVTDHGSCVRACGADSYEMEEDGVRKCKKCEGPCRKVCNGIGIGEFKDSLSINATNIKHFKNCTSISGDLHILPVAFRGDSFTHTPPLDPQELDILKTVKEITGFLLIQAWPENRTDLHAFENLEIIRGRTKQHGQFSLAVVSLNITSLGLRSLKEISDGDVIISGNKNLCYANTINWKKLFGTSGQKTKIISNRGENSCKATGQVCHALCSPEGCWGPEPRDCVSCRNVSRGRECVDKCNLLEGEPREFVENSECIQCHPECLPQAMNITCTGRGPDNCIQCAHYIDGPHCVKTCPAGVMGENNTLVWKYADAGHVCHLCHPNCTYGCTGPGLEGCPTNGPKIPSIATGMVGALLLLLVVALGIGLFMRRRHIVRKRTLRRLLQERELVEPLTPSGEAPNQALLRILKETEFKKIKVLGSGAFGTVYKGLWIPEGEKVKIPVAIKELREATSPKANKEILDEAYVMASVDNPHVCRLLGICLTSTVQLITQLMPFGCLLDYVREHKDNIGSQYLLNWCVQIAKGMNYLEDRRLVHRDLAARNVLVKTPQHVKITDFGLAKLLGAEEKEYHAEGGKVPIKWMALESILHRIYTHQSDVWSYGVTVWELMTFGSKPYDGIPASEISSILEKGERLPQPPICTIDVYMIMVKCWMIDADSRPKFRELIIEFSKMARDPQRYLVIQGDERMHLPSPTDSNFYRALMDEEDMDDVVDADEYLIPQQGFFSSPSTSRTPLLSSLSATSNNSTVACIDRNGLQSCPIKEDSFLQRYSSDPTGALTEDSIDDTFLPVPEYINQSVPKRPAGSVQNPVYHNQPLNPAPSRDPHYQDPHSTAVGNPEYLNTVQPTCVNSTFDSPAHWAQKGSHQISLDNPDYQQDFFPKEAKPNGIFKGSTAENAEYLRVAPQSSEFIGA
Active and inactive are the calls of the source.
Classes to choose from: 1 (yes) = active, 0 (no) = inactive

# COMPOUND, STUDY TARGET, DISCRETE LABEL
data = [
    ("CC(C)c1cc(CNc2nc(Nc3cc(C4CC4)[nH]n3)cc(N3CCN(C)CC3)n2)on1", "Epidermal growth factor receptor (Homo sapiens, UniProt P00533)", "0 (no)"),
    ("COc1ccc(S(=O)(=O)N(C(C)=O)c2ccccc2/C=C/c2cc[n+]([O-])cc2)cc1", "Epidermal growth factor receptor (Homo sapiens, UniProt P00533)", "0 (no)"),
    ("C=CC(=O)Nc1cc2c(Nc3ccc(F)c(Cl)c3)ncnc2cc1C#CC(C)(C)N1CCN(C)CC1 [AV-412 FREE BASE]", "Epidermal growth factor receptor (Homo sapiens, UniProt P00533)", "1 (yes)"),
]

Request: For this compound, state the assay outcome: Cn1cnc2c(F)c(Nc3ccc(Br)cc3F)c(C(=O)NOCCO)cc21
Response: 0 (no)
